Experiment: qHTS assay to identify small molecule antagonists of the estrogen related receptor (ERR) signaling pathway - cell viability counter screen (AID 1224818);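 also: viability measured after 17.5 h of compound exposure; % is scaled to controls: 0 for no effect and ±100 for the full control effect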
Conditions: ERR reporter cell line viability counter screen; series mostly up to 46.1 µM
Results filed as inconclusive are left out. Active and inactive are the calls of the source. Calls follow the shape of the dose curve; as a rule, active = well fitted cell-killing curve with a large enough effect in the repeat runs; inconclusive = weak or mixed curves; inactive = flat fitted curve, though single readings scatter.
Bench note: report the call from active, inactive

compound: N=C(N)c1ccc(N)cc1
group: inactive

// query Fill in: this test's call for Clc1ccc2c(N3CCN(CCCN4CCN(c5ccnc6cc(Cl)ccc56)CC4)CC3)ccnc2c1 is ___
// result inactive

// query Fill in: this test's call for CCCN(CCc1ccccc1)C1CCc2c(O)cccc2C1 (stereo not given) is ___
// result inactive

// query Fill in: this test's call for CC(C)NC[C@H](O)c1ccc(O)c(O)c1 is ___
// result inactive

// query Fill in: this test's call for CC1CN(S(=O)(=O)c2cccc3cnccc23)CCN1 (stereo not given) is ___
// result inactive

====

Test: qHTS assay for identifying genotoxic compounds that show differential cytotoxicity against isogenic chicken DT40 cell lines with known DNA damage response pathways - Rad54/Ku70 mutant cell line (AID 743015); also: nearly all actives have a fitted effect of over 60% in size
Details: DT40 Rad54/Ku70 mutant viability, CellTiter-Glo, 40 h; series mostly up to 66.8 µM
Excerpt: National Center for Advancing Translational Sciences [NCATS] NIH Chemical Genomics Center [NCGC] U.S. Environmental Protection Agency [EPA] National Institutes of Environmental Health Sciences [NIEHS] National Toxicology Program [NTP] U.S. Food and Drug Administration [FDA] DNA repair pathways play a critical role in cellular homeostasis by repairing DNA damage induced by endogenous processes and xenobiotics. […]
Inconclusive results are not listed. Calls of active or inactive are those of the source. The call rests on the fitted dose curve; in most records, active means well fitted cell-killing curve with a large enough effect in the repeat runs; inconclusive means weak or mixed curves; inactive means no such curve, though single readings can be large or run the other way.
Bench note: report the call from active, inactive

Use these answered entries as a reference point.
compound: C=CC[N+]1([C@H]2C[C@H]3[C@@H]4CC[C@H]5C[C@H](O)[C@@H](N6CCOCC6)C[C@]5(C)[C@H]4CC[C@]3(C)[C@H]2OC(C)=O)CCCC1
group: inactive
//
compound: CCCCCCCCCCCC[n+]1ccc2ccccc2c1
group: active
//
compound: COC(=O)[C@H]1[C@H]2C[C@H]3c4[nH]c5ccccc5c4CCN3C[C@H]2CC[C@@H]1O
group: inactive
//
compound: O=C1OC(O)C(C(Cl)Cl)=C1Cl (stereo not drawn)
group: active
//
compound: CCN(CC)CC#CCOC(=O)C(O)(c1ccccc1)C1CCCCC1 (stereo not drawn)
group: active
//
compound: COc1c(O)cc2c(c1O)[C@@H]1O[C@H](CO)[C@@H](O)[C@H](O)[C@H]1OC2=O
group: inactive
//
compound: CCc1ncnc2cc(OC)c(OC)cc12
group: inactive
//
compound: NCCO/C=C/[C@H](N)C(=O)O
group: inactive
//
compound: CC(C)(Oc1ccc(C2CCCc3ccccc32)cc1)C(=O)O (stereo not drawn)
group: inactive
//
compound: CO/N=C(\C(=O)N[C@@H]1C(=O)N2C(C(=O)[O-])=C(C[n+]3ccc(N)n3CCO)CS[C@H]12)c1csc(N)n1
group: inactive

// query Fill in: this test's call for CC(C)Cc1ccc([C@H](C)C(=O)O)cc1 is ___
// result inactive

// query Fill in: this test's call for CN(C[C@@H](CC[N+]12CCC(C3CCCCC3)(CC1)CC2)c1ccc(Cl)c(Cl)c1)C(=O)c1cc(C(F)(F)F)cc(C(F)(F)F)c1 is ___
// result active

// query Fill in: this test's call for CC(C)CCC[C@@H](C)[C@H]1CC[C@H]2[C@@H]3CC=C4C[C@@H](O)CC[C@]4(C)[C@H]3CC[C@]12C is ___
// result inactive

====

Test: A CellTox Green Cytotoxicity Assay to monitor cytotoxicity in HepG2 cells - 32 hour (AID 1224883); also: nearly all actives have a fitted effect of over 50% in size; also: potency is read from the fitted curve at half-maximal effect
Conditions: CellTox Green fluorescence; series mostly up to 76.8 µM
Inconclusive results are not listed. The source made the active and inactive calls. Calls follow the shape of the dose curve; as a rule, active = well fitted activation curve with a large enough effect in the repeat runs; inconclusive = weak or mixed curves; inactive = flat fitted curve, though single readings scatter.
measured-property: Potency

Sample answers from the record:
molecule: C=Cc1ccncc1
result: inactive
--
molecule: C/C=C/C(=O)OCC(C)C
result: inactive
--
molecule: C=CC(=O)OCC(Br)CBr (configuration not stated)
result: inactive
--
molecule: Cc1ccc(S(=O)(=O)C(I)I)cc1
result: 43.6 µM (active)
--
molecule: CC1CCC(C(C)(C)O)CC1 (configuration not stated)
result: inactive

// query Provide Potency value for the following molecule: CCN(CC)c1ccc2c(c1)Oc1cc(N(CC)CC)ccc1C21OC(=O)c2ccccc21
// result 23.9 µM (active)

// query Provide Potency value for the following molecule: O=C(Cl)c1ccc(Cl)cc1Cl
// result 54.9 µM (active)

// query Provide Potency value for the following molecule: Cc1ccc2sc3cccc(C)c3c2c1
// result inactive

// query Provide Potency value for the following molecule: S=C1NC=NC2N=CNC12 (configuration not stated)
// result inactive

// query Provide Potency value for the following molecule: CCOC(=O)[C@H](O)[C@@H](O)C(=O)OCC
// result inactive

// query Provide Potency value for the following molecule: Cc1ccc(C=O)cc1
// result inactive

// query Provide Potency value for the following molecule: O=C1CCC(=O)N1
// result inactive

====

Test: qHTS assay to identify small molecule agonists of the hypoxia (HIF-1) signaling pathway (AID 1224846); also: % is scaled to controls: 0 for no effect and ±100 for the full control effect
Details: HRE-bla ME-180 cells, beta-lactamase ratio, 17 h; series mostly up to 76.8 µM
Inconclusive results are not listed. Active and inactive are the calls of the source. Calls follow the shape of the dose curve; as a rule, active = well fitted activation curve with a large enough effect in the signal ratio in the repeat runs (not every such curve was filed as active); inconclusive = weak or mixed curves; inactive = flat fitted curve, though single readings scatter; the % refers to the signal ratio.
measured-property: activation

Sample answers from the record:
compound: CC(C)(C)c1ccc(OC2CCCCC2O)cc1 (centres undefined)
activation: inactive
--
compound: O=C(c1ccccc1)c1ccc(Cl)cc1
activation: inactive
--
compound: CC(C)c1ccc2sc3ccccc3c(=O)c2c1
activation: inactive
--
compound: O=C1CCC(=O)N1
activation: inactive
--
compound: CCc1c(C)cc(N)c(CC)c1N
activation: inactive

// query Provide activation value for the following compound: COc1cc2ncnc(Nc3cccc(Cl)c3)c2cc1OC
// result 0.103% [at 15.8 µM] (inactive)

// query Provide activation value for the following compound: CCN(CC)c1ccc(C=O)cc1
// result inactive

// query Provide activation value for the following compound: N#CCCOCCC#N
// result inactive

// query Provide activation value for the following compound: CCN(CCC#N)c1ccc(N=Nc2ccc([N+](=O)[O-])cc2)cc1
// result inactive

// query Provide activation value for the following compound: CCCCNc1ccc(NCCCC)c2c1C(=O)c1ccccc1C2=O
// result 0.413% [at 15.8 µM] (inactive)

// query Provide activation value for the following compound: C=Cc1ccncc1
// result inactive

// query Provide activation value for the following compound: Clc1cccc(Cl)n1
// result inactive

// query Provide activation value for the following compound: CC(C)(C)c1cc(CCC(=O)OCCSCCOC(=O)CCc2cc(C(C)(C)C)c(O)c(C(C)(C)C)c2)cc(C(C)(C)C)c1O
// result inactive

// query Provide activation value for the following compound: C=C[Si](C)(C)Cl
// result 0.268% [at 7.01 µM] (inactive)

====

Assay: qHTS assay for identifying genotoxic compounds that show differential cytotoxicity against isogenic chicken DT40 cell lines with known DNA damage response pathways - Rev3 mutant cell line (AID 743014); also: nearly all actives have a fitted effect of over 55% in size
Conditions: chicken DT40 Rev3-/- viability, CellTiter-Glo, 40 h; series mostly up to 68.4 µM
Inconclusive results are not listed. Activity calls are given as the source filed them. The call rests on the fitted dose curve; in most records, active means well fitted cell-killing curve with a large enough effect in the repeat runs; inconclusive means weak or mixed curves, or effect the other way; inactive means no such curve, though single readings can be large or run the other way.
Bench note: report the call from YES (active), NO (inactive)

compound: CO/N=C(\C(=O)N[C@@H]1C(=O)N2C(C(=O)O)=C(COC(C)=O)CS[C@H]12)c1csc(N)n1 (stereo in doubt)
group: NO
--
compound: NC(=S)NS(=O)(=O)c1ccc(N)cc1
group: NO
--
compound: O=C(Nc1ccccc1)c1cc(Cl)ccc1O
group: YES
--
compound: CC12CCC(C1)C(C)(C)C2=O (centres undefined)
group: NO
--
compound: Cc1cc(-c2ccc(N=Nc3ccc4c(S(=O)(=O)O)cc(S(=O)(=O)O)c(N)c4c3O)c(C)c2)ccc1N=Nc1ccc2c(S(=O)(=O)O)cc(S(=O)(=O)O)c(N)c2c1O
group: YES

// query Fill in: this test's call for CC[C@H](C)C(=O)O[C@H]1CCC=C2C=C[C@H](C)[C@H](CC[C@@H]3C[C@@H](O)CC(=O)O3)[C@H]21 is ___
// result YES

// query Fill in: this test's call for N#Cc1nc(Cl)c(Cl)c(Cl)c1Cl is ___
// result YES

// query Fill in: this test's call for COc1cccc2c1[C@@H]1CN(CCCCn3c(=O)[nH]c4c(sc5ncc(-c6ccccc6)nc54)c3=O)C[C@@H]1CO2 is ___
// result YES

// query Fill in: this test's call for CCCCC/C=C\C=C\C(=O)OCC is ___
// result YES

// query Fill in: this test's call for C[C@H](O)CN(C)C is ___
// result NO

// query Fill in: this test's call for O=C[C@H](O)[C@@H](O)[C@@H](O)[C@H](O)CO is ___
// result NO

// query Fill in: this test's call for C/C(=C\C(=O)OCCCCCCCCC(=O)O)C[C@@H]1OC[C@H](C[C@@H]2O[C@H]2[C@@H](C)[C@H](C)O)[C@@H](O)[C@H]1O is ___
// result YES

// query Fill in: this test's call for CCN(CC)CCn1c(=O)c(Cc2ccc(OC)cc2)nc2ccccc21 is ___
// result YES

// query Fill in: this test's call for C[C@]12O[C@H](C[C@]1(O)CO)n1c3ccccc3c3c4c(c5c6ccccc6n2c5c31)CNC4=O is ___
// result YES
